pIC50 listing for selected molecules.
Target: human HSL (Homo sapiens, UniProt Q05469)
Construct: overlapping PCR to generate a full length human HSL ORF with a 3′-His6 tag; His6 (C)
Sequence (Q05469 whole entry): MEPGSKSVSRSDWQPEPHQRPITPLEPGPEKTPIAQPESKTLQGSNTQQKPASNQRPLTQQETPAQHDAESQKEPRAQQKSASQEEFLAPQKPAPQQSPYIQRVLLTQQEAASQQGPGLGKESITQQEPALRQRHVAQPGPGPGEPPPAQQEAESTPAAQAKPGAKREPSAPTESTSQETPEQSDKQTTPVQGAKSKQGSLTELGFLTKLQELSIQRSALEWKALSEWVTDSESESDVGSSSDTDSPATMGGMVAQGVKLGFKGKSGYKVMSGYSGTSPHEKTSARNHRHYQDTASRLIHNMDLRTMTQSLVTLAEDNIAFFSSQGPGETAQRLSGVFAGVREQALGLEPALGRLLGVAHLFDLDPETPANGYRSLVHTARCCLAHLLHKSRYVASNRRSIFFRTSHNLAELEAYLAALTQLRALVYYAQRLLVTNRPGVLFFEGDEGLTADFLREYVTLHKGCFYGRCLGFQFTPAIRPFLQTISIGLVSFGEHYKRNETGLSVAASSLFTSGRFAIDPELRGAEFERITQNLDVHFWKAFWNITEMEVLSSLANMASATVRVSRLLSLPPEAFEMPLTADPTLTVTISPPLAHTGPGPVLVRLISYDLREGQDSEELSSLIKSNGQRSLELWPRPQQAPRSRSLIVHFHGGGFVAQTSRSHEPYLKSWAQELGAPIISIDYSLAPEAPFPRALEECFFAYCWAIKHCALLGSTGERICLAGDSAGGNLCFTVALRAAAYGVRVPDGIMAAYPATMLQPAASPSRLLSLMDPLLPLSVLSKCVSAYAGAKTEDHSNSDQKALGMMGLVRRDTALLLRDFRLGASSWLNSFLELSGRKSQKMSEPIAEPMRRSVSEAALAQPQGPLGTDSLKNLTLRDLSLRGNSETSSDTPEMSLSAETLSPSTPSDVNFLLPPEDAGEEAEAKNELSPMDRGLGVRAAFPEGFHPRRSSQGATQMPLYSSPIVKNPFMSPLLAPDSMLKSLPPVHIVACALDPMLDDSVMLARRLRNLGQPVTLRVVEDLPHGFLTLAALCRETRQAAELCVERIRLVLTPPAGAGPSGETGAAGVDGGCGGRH
Test: Human hormone-sensitive lipase (HSL) enzyme inhibition assay (colorimetric, DMPT substrate)
Conditions: human full length HSL-His6; 2,3-dimercapto-1-propanol tributyrate substrate; 37° C., 20 minutes; read-out: HSL hum IC50
pIC50: −log10 of the molar value.
parameter_measured: pIC50

> print(dat)
                            compound.smiles  assay.value
1  Cc1ccc(S(=O)(=O)N2CCC(C(=O)Nc3ccc(OC(C)C)cc3F)CC2)cc1         6.33
2  O=C(Nc1ccc(OC(F)(F)F)cc1)C1(F)CCN(S(=O)(=O)c2ccccc2Cl)CC1         6.74
3  CC(C)c1ccc(NC(=O)C2CCN(C(=O)CC(C)(C)C)CC2)cc1         6.70
4  Cc1ccc(S(=O)(=O)N2CCC(F)(C(=O)Nc3ccc(OC(C)C)cc3)CC2)cc1         6.13

====

Molecular target: human HSL (Homo sapiens)
Construct: overlapping PCR to generate a full length human HSL ORF with a 3′-His6 tag; His6 (C)
Test: Human hormone-sensitive lipase (HSL) enzyme inhibition assay (colorimetric, DMPT substrate)
Settings: human full length HSL-His6; 2,3-dimercapto-1-propanol tributyrate substrate; 37° C., 20 minutes; read-out: HSL hum IC50
parameter_measured: log10 of IC50 (log10 of the value in nM)

> print(dat)
                                    compound  assay.value
 1  Cc1ccc(S(=O)(=O)N2CCC(C(=O)Nc3ccc(OC(C)(C)C(F)(F)F)cc3)CC2)cc1         2.11
 2  O=C(Nc1ccc(OC(F)(F)F)cc1)C1CCN(S(=O)(=O)c2ccccc2Cl)CC1         1.30
 3  CC(C)Oc1ccc(NC(=O)C2CCN(S(=O)(=O)c3ccccc3)CC2)cc1         1.85
 4  CC1(C(=O)Nc2ccc(OC(F)(F)F)cc2)CCN(S(=O)(=O)c2ccccc2Cl)CC1         2.73
 5  Cc1ccc(S(=O)(=O)N2CCC(C(=O)Nc3ccc(OCC(O)C(F)(F)F)cc3)CC2)cc1 (racemic)         2.93
 6  COc1ccc(NC(=O)C2CCN(S(=O)(=O)c3ccccc3)CC2)nn1         4.08
 7  CC(Oc1ccc(NC(=O)C2(CO)CCN(S(=O)(=O)c3ccccc3)CC2)cc1)C(F)(F)F (racemic)         2.98
 8  O=C(Nc1ccc(OC(F)(F)F)cc1)C1(CO)CCN(S(=O)(=O)c2ccccc2)CC1         2.34
 9  Cc1ccc(S(=O)(=O)N2CCC(C(=O)Nc3ccc(O[C@H](CCO)C(F)(F)F)cc3)CC2)cc1         1.85
10  CCn1nc(NC(=O)C2CCN(S(=O)(=O)c3ccccc3)CC2)cc1C(F)(F)F         3.05
11  COc1ccc(S(=O)(=O)N2CCC(C(=O)Nc3ccc(OC(F)(F)F)cc3)CC2)cc1         1.60
12  Cn1cc(S(=O)(=O)N2CCC(F)(C(=O)Nc3ccc(OC(F)(F)F)cc3)CC2)c(C(F)(F)F)n1         3.04
13  Cc1ccc(S(=O)(=O)N2CCC(F)(C(=O)Nc3ccc(OC(F)(F)F)cc3)CC2)cc1         2.74
14  Cc1ccc(S(=O)(=O)N2CCC(CO)(C(=O)Nc3ccc(OC(F)(F)F)cc3)CC2)cc1         2.52
15  Cc1ccc(S(=O)(=O)N2CCC(C(=O)N(C)c3ccc(OC(F)(F)F)cc3)CC2)cc1         1.60
16  CC(C)(C)CC(=O)N1CCC(C(=O)Nc2ccc(OC(F)(F)F)cc2)CC1         2.30
